SIGNAL listing for selected compounds.
- Assayed System: UniProt:P19111
- Protocol Notes: Chemiluminescent signal and signal:background with enhancer polymers (Example XVII)
- Format: biochemical
- Condition Label: polymer MPB; 20 min
# output: bare number, no unit

See these solved cases before continuing.
Compound: COC1(c2cccc(OP(=O)(O)O)c2)OOC12C1CC3CC(C1)CC2C3 (stereo not shown) [AMPPD, reference compound]
Reported Result: 41701.8

Compound: COC1(c2cccc(OP(=O)(O)O)c2)OOC12C1CC3CC2CC(Cl)(C3)C1 (stereo not shown)
Reported Result: 29133.9

Compound: COC1(c2cccc(OP(=O)(O)O)c2)OOC12C1CC3CC2CC(O)(C3)C1 (single isomer, unassigned) [B-OH-AMPPD]
Reported Result: 10939.0

Prompt: Report value only: SIGNAL, UniProt:P19111, COC1(c2cccc(OP(=O)(O)O)c2)OOC12C1CC3CC2CC(O)(C3)C1 (single isomer, unassigned) [A-OH-AMPPD]
Completion: 16159.2

###

- Assayed System: alkaline phosphatase (Bos taurus, UniProt P19111)
- Sequence (P19111 20-506 limits assumed): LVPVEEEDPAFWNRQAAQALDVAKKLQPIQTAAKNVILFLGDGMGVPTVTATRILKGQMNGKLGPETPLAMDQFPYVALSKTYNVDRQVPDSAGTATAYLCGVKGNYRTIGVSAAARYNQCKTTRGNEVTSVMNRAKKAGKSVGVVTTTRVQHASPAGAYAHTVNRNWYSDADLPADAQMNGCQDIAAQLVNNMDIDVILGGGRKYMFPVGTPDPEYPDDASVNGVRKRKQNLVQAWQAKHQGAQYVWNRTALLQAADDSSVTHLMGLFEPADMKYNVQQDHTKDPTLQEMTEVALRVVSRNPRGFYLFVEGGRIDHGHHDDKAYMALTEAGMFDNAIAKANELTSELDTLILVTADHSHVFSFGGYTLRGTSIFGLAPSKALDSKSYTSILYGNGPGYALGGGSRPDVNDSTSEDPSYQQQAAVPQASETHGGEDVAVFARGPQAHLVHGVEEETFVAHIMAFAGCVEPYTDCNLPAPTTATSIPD
- Protocol Notes: Chemiluminescent signal-to-noise levels with enhancers (Example XXIV)
- Type: biochemical
- Condition Label: SAPPHIRE 1 1 mg/ml; 20 min
Outcome Measure: chemiluminescent signal-to-noise level
# output: bare number, no unit

Molecule: COC1(c2cccc(OP(=O)(O)O)c2)OOC12C1CC3CC2CC(Cl)(C3)C1 (stereo not shown) [Cl-AMPPD]
chemiluminescent signal-to-noise level: 827
//
Molecule: COC1(c2cccc(OP(=O)(O)O)c2)OOC12C1CC3CC2CC(O)(C3)C1 (single isomer, unassigned) [HO-AMPPD]
chemiluminescent signal-to-noise level: 305
//
Molecule: COC1(c2cccc(OP(=O)(O)O)c2)OOC12C1CC3CC2CC(Br)(C3)C1 (stereo not shown) [Br-AMPPD]
chemiluminescent signal-to-noise level: 566

API: the following record is the query input.
Prompt: Report value only: chemiluminescent signal-to-noise level, alkaline phosphatase (Bos taurus, UniProt P19111), COC1(c2cccc(OP(=O)(O)O)c2)OOC12C1CC3CC(C1)CC2C3 (stereo not shown) [AMPPD, reference compound]
Completion: 364

###

- Assayed System: alkaline phosphatase (Bos taurus)
- Protocol Notes: Chemiluminescent signal and signal:background with enhancer polymers (Example XVII)
- Type: biochemical
- Condition Label: polymer S/TMQ(1:2); time 0 (background, before enzyme)
Outcome Measure: SIGNAL
# output: bare number, no unit

Compound: COC1(c2cccc(OP(=O)(O)O)c2)OOC12C1CC3CC2CC(O)(C3)C1 (single isomer, unassigned) [A-OH-AMPPD]
Assayed System: alkaline phosphatase (Bos taurus)
SIGNAL: 90.6

Prompt: Supply recorded SIGNAL for COC1(c2cccc(OP(=O)(O)O)c2)OOC12C1CC3CC(C1)CC2C3 (stereo not shown) [AMPPD, reference compound] here.
Completion: 169.8

Prompt: Supply recorded SIGNAL for COC1(c2cccc(OP(=O)(O)O)c2)OOC12C1CC3CC2CC(Cl)(C3)C1 (stereo not shown) here.
Completion: 66.8

Prompt: Supply recorded SIGNAL for COC1(c2cccc(OP(=O)(O)O)c2)OOC12C1CC3CC2CC(O)(C3)C1 (single isomer, unassigned) [B-OH-AMPPD] here.
Completion: 160.3

###

SIGNAL listing for selected molecules.
- Assayed System: UniProt:P19111
- Protocol Notes: Chemiluminescent signal and signal:background with enhancer polymers (Example XVII)
- Format: biochemical
- Condition Label: polymer SAPPHIRE (BDMQ); time 0 (background, before enzyme)
# output: bare number, no unit

See these solved cases before continuing.
Molecule: COC1(c2cccc(OP(=O)(O)O)c2)OOC12C1CC3CC2CC(O)(C3)C1 (single isomer, unassigned) [B-OH-AMPPD]
SIGNAL: 138.8
--
Molecule: COC1(c2cccc(OP(=O)(O)O)c2)OOC12C1CC3CC2CC(Cl)(C3)C1 (stereo not shown) [Cl-AMPPD]
SIGNAL: 296.0
--
Molecule: COC1(c2cccc(OP(=O)(O)O)c2)OOC12C1CC3CC2CC(O)(C3)C1 (single isomer, unassigned) [A-OH-AMPPD]
SIGNAL: 86.1

API: the following record is the query input.
Prompt: Supply recorded SIGNAL for COC1(c2cccc(OP(=O)(O)O)c2)OOC12C1CC3CC(C1)CC2C3 (stereo not shown) [AMPPD, reference compound] here.
Completion: 241.4
